Cited source: PubChem BioAssay (NCI)

# Tested on: SNB-75 CNS
# procedure_summary: NCI tumour cell line growth inhibition, 48 h
property_label: TGI (µM)
Numeric answer only, unit µM assumed.

CO/N=C(\COc1ccc2oc(-c3ccccc3)cc(=O)c2c1)c1ccc(F)cc1 ... 40.6
C[C@H]1C=C2C(=O)O[C@H]3CC[C@@H](C1)[C@@]23O ... 19.5

*Q* Recorded TGI of `N#Cc1cc(S(=O)(=O)Nc2nc3ccccc3o2)c(SCc2ccccc2)cc1Cl` , please.
*A* 59.3

*Q* # get_value(readout='TGI', item= `CNC(=S)N1CCN(C(C)=O)C1=S` )
*A* 72.9

*Q* Look at this molecule and give its reported TGI. CN(C)/N=N/c1nc2c(c(=O)n(C)c(=O)n2C)n1CC1CO1 (configuration not stated)
*A* 43.6

*Q* Give the measured TGI of `CC1=NOC(=O)/C1=C/c1ccc2c(c1)OCO2` .
*A* 57.5

*Q* Can you look up the measured TGI of `O=C(Nc1nn(C(=O)c2cccnc2)c(=O)s1)c1ccc(Cl)cc1` for me?
*A* 82.2
